Data origin: PubChem BioAssay (EPA / NIEHS)

read-out: TIMP metallopeptidase inhibitor 1 (TIMP1), TIMP1 (gene 7076); assay: BSK_hDFCGF_TIMP1: BioMAP Diversity Plus: hDFCGF Assay for TIMP metallopeptidase inhibitor 1 (TIMP1) Biomarker Activity (AID 2283062); conditions: primary human foreskin fibroblasts; actives raise or lower the signal
The source made the active and inactive calls. The calls were made as follows: active = hit-call score of the fitted dose curve at least 0.9, where 1 is the maximum; inactive = score below 0.9.
Just give me one of these, please: yes = active, no = inactive

Check out these entries, answers already filled in.
CCCCCCCCCCCCCCCCCC[N+](C)(C)C ... yes
Oc1cccc2ccccc12 ... no
Sc1nc2ccccc2s1 ... no
CN(C)c1ccc(C(c2ccccc2)c2ccc(N(C)C)cc2)cc1 ... no
CCCCCCCCCC/C=C/C1CC(=O)OC1=O (centres undefined) ... no
O=C(C(=O)c1ccccc1)c1ccccc1 ... no
Cc1c(C(N)=O)cc([N+](=O)[O-])cc1[N+](=O)[O-] ... no
CCC[Si](OC(C)=O)(OC(C)=O)OC(C)=O ... no

(Q) Recorded test call requested for `COc1ccccc1Oc1c(NS(=O)(=O)c2ccc(C(C)(C)C)cc2)nc(-c2ncccn2)nc1OCCO`
(A) no

(Q) Recorded test call requested for `OC(C(F)(F)F)(C(F)(F)F)C(O)(C(F)(F)F)C(F)(F)F`
(A) no

(Q) Recorded test call requested for `C1CN(CCOCCN2CCOCC2)CCO1`
(A) no

(Q) Recorded test call requested for `COc1cc(CNC(=O)CCCC/C=C/C(C)C)ccc1O`
(A) no

(Q) Recorded test call requested for `Cc1cc(-n2nc3ccc(Cl)cc3n2)c(O)c(C(C)(C)C)c1`
(A) no

(Q) Recorded test call requested for `CCC(C)=NO`
(A) no

----------
target: Signal transducer and activator of transcription 3 (Homo sapiens) (UniProt P40763); assay: ATG_STAT3_CIS: Attagene CIS-FACTORIAL HepG2 Assay for human Signal Transducer and Activator of Transcription 3 (STAT3) (AID 2282963); settings: HepG2, Attagene cis-factorial STAT3 reporter transcription; actives raise or lower the signal
Sequence (P40763 whole entry, looked up): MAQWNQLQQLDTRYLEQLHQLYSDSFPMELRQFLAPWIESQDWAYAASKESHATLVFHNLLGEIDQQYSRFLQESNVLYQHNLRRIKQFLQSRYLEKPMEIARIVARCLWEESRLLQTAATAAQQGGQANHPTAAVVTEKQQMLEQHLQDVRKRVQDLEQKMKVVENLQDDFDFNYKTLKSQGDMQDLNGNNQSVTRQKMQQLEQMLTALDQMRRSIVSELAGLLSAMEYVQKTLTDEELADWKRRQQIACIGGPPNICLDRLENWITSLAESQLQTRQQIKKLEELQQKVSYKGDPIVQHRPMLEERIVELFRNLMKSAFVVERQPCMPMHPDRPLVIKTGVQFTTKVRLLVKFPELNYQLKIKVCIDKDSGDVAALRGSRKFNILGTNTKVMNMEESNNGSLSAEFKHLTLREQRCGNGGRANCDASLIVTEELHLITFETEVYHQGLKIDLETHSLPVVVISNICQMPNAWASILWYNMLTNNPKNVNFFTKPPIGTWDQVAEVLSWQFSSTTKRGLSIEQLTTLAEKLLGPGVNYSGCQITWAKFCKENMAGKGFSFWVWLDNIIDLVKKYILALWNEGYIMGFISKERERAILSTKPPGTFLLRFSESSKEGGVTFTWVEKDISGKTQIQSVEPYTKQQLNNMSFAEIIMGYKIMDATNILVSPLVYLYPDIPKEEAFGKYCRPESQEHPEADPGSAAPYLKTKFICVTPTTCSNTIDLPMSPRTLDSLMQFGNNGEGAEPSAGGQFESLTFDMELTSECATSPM
Activity calls are given as the source filed them. How the source made its calls: active means hit-call score of the fitted dose curve at least 0.9, where 1 is the maximum; inactive means score below 0.9.
Just give me one of these, please: active, inactive

Check out these entries, answers already filled in.
NC(=O)c1ccc(N)cc1 ... inactive
NCc1ccccc1 ... inactive
Cc1ccnc(N)c1 ... inactive

(Q) Recorded test call requested for `C=C(C)C(=O)OCCCCCC`
(A) inactive

(Q) Recorded test call requested for CCC(C)C1N=C(C)C(C)S1 (stereo not given)
(A) inactive

(Q) Recorded test call requested for `OCCc1ccccn1`
(A) inactive

(Q) Recorded test call requested for `CC1(C)S[C@@H]2[C@H](NC(=O)[C@H](N)c3ccccc3)C(=O)N2[C@H]1C(=O)O`
(A) inactive

(Q) Recorded test call requested for `CCCCCCCC#N`
(A) inactive

(Q) Recorded test call requested for `Cc1cccnc1`
(A) inactive

(Q) Recorded test call requested for C=CC(C)(CCC=C(C)C)OC(=O)c1ccccc1 (stereo not given)
(A) inactive

(Q) Recorded test call requested for `CC1=C(CC=O)C(C)(C)CCC1`
(A) inactive

(Q) Recorded test call requested for `c1ccc(CNc2ncnc3nc[nH]c23)cc1`
(A) inactive

(Q) Recorded test call requested for COc1ccccc1OCC(O)CO (stereo not given)
(A) inactive

(Q) Recorded test call requested for `CCCC(=O)OC/C=C(\C)CCC=C(C)C`
(A) inactive

(Q) Recorded test call requested for CCCCCCCCCCC1CO1 (stereo not given)
(A) inactive

(Q) Recorded test call requested for `Nc1ccc(S(=O)(=O)Nc2cnc3ccccc3n2)cc1`
(A) inactive

(Q) Recorded test call requested for `Clc1ccccn1`
(A) inactive

(Q) Recorded test call requested for `Clc1ccc(Sc2cc(Cl)c(Cl)cc2Cl)cc1`
(A) inactive

(Q) Recorded test call requested for CC1=C(CC(=O)O)c2cc(F)ccc2/C1=C\c1ccc(S(C)=O)cc1 (stereo not given)
(A) inactive

(Q) Recorded test call requested for `CC/C=C\CCO`
(A) inactive

(Q) Recorded test call requested for C=C(C)C(=O)OCC1CCCO1 (stereo not given)
(A) inactive
